Experiment: Stability of peptides in human liver microsomes
Type: in vitro ADME
Details: human, microsomes
Where a SMILES comes first, the peptide text is derived from it. [ ]: non-standard residue; d: D form. ξ: configuration not given here. ξBip(2'-Et-4'-OMe) = CCc1cc(OC)ccc1-c1ccc(CC(N)C(=O)O)cc1; hhPhe = N[C@@H](CCCc1ccccc1)C(=O)O; hArg = N=C(N)NCCCC[C@H](N)C(=O)O; hCit = NC(=O)NCCCC[C@H](N)C(=O)O; Nle = CCCC[C@H](N)C(=O)O; Ac5c = NC1(C(=O)O)CCCC1; Aib = CC(C)(N)C(=O)O

molecule	half-life, h
CCCC[C@H](NC(=O)[C@H](CC(C)C)NC(=O)[C@H](CCC(N)=O)NC(=O)[C@@H](NC(=O)[C@H](CCC(=O)O)NC(=O)C(C)(C)NC(=O)[C@@H](NC(=O)C(C)(C)N)C(C)C)[C@@H](C)CC)C(=O)N[C@@H](Cc1c[nH]cn1)C(=O)N[C@@H](CCC(N)=O)C(=O)N[C@@H](CCCCNC(N)=O)C(=O)NC(C)(C)C(=O)NC(C)(C)C(=O)NC(Cc1ccc(-c2ccc(OC)cc2CC)cc1)C(=O)N[C@@H](CCCc1ccccc1)C(N)=O (some centres unmarked) [Seq. ID. 790] (H-[Aib]V[Aib]EIQL[Nle]HQ[hCit][Aib][Aib][ξBip(2'-Et-4'-OMe)][hhPhe]-NH2)	2
CCc1cc(OC)ccc1-c1ccc(CC(NC(=O)[C@H](CCCCN)NC(=O)[C@H](C)NC(=O)[C@H](CCCCNC(=N)N)NC(=O)[C@H](CCC(N)=O)NC(=O)[C@H](Cc2c[nH]cn2)NC(=O)[C@H](CCSC)NC(=O)[C@H](CC(C)C)NC(=O)[C@H](CCC(N)=O)NC(=O)[C@@H](NC(=O)[C@H](CCC(=O)O)NC(=O)C(C)(C)NC(=O)[C@@H](NC(=O)C2(N)CCCC2)C(C)C)[C@@H](C)CC)C(N)=O)cc1 (some centres unmarked) [Seq. ID. 650] (H-[Ac5c]V[Aib]EIQLMHQ[hArg]AK[ξBip(2'-Et-4'-OMe)]-NH2)	1
